target: CHD4 PHD2 finger, wild type (UniProt Q14839 446-501); assay: other fluorescence titration + NMR titration
recorded metric: Kd

Problem: Look up Kd of ARTKQTARKSTG (trimethyl-lysine at 4) [H3K4me3 peptide (12-mer histone tail peptide)] and report it.
Result: 2 mM
